A collection of molecules and their measured inhibition
System: Platelet-derived growth factor receptor alpha (Homo sapiens), P16234 [V561D]
Sequence (P16234 whole entry V561D): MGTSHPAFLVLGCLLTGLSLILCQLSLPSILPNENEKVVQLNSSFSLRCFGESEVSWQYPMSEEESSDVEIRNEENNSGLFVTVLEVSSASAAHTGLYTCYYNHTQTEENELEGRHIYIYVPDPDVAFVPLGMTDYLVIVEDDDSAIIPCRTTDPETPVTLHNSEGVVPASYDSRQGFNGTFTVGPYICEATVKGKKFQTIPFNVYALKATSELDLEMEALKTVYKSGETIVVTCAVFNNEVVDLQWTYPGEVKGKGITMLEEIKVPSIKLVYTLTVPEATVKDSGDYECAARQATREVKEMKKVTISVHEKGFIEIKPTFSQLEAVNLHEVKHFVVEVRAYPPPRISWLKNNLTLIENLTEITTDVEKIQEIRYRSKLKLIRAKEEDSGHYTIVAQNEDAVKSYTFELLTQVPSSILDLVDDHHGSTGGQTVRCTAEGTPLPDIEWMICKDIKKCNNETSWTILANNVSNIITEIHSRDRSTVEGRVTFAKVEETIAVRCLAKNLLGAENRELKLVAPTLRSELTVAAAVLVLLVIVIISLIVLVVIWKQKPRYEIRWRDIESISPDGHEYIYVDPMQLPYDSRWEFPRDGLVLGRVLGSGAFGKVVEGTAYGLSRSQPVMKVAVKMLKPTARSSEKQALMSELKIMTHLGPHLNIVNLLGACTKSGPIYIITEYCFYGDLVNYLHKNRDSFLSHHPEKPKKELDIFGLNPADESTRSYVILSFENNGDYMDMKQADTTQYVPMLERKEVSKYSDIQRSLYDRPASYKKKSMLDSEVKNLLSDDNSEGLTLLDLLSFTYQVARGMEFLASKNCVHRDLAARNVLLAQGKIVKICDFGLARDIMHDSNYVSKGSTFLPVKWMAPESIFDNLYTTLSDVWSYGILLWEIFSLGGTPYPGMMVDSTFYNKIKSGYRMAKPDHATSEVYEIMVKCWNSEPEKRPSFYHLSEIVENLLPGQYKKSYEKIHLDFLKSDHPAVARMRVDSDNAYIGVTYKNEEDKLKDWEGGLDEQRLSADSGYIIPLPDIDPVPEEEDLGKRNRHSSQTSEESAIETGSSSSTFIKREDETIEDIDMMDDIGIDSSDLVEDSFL
CONDITION LABEL: at 1 µM

>  <SMILES INPUT>
N#Cc1cccc(Nc2ncc(-c3ccccc3)o2)c1

>  <inhibition [%]>
36.8

$$$$
>  <SMILES INPUT>
O=C(O[C@H]1CN[C@H](C#Cc2cc3ncnc(Nc4ccc5c(ccn5Cc5cc(F)ccc5F)c4)c3s2)C1)N1CCOCC1

>  <inhibition [%]>
5.97

$$$$
>  <SMILES INPUT>
O=C(Nc1n[nH]c2nnc(-c3cccnc3)cc12)C1CC1

>  <inhibition [%]>
3.69

$$$$
>  <SMILES INPUT>
CN(c1ccc(NC(=O)NCCN2CCOCC2)cc1)c1ccnc(Nc2ccc(CS(C)(=O)=O)cc2)n1

>  <inhibition [%]>
90.1

$$$$
>  <SMILES INPUT>
O=C1Nc2ccccc2/C1=C1\CCc2cc(O)ccc21

>  <inhibition [%]>
64.8

$$$$
>  <SMILES INPUT>
NC(=O)c1ccc2c(-c3ccnc(NCCCO)n3)c(-c3ccc(F)cc3)nn2c1

>  <inhibition [%]>
14.3

$$$$
>  <SMILES INPUT>
CCCNc1cccc(-n2ncc3c(N/N=C/c4ccncc4)ncnc32)c1

>  <inhibition [%]>
68.4

$$$$
